Listed here: items and their measured pIC50.
Target: CDK1/cyclin B
Test: CDK1/cyclin B kinase assay (histone H1, 15 μM ATP)
Conditions: 30° C., 30 min
pIC50: −log10 of the molar value.
Property: pIC50

> print(dat)
                                    compound  comparator  reported
 1  CN1CCN(CCO/N=C2/C(=C3/C(=O)Nc4cc(Br)ccc43)Nc3ccccc32)CC1 [Cpd 23]           =      6.52
 2  CCN(CC)CCO/N=C1/C(=C2/C(=O)Nc3cc(Br)ccc32)Nc2ccccc21 [Cpd 6]           =      7.05
 3  CN(CCO/N=C1/C(=C2/C(=O)Nc3cc(Br)ccc32)Nc2ccccc21)CC(O)CO (centres unmarked) [Cpd 10]           =      6.62
 4  COCCN1CCN(CCO/N=C2/C(=C3/C(=O)Nc4cc(Br)ccc43)Nc3ccccc32)CC1 [Cpd 14]           =      5.55
 5  CCN(CC)C(=O)O/N=C1/C(=C2/C(=O)Nc3cc(Br)ccc32)Nc2ccccc21 [Cpd 4]           <      5.00
 6  O=C1Nc2cc(Br)ccc2/C1=C1/Nc2ccccc2/C1=N\OCCO [Cpd 2]           =      5.77
 7  O=C1Nc2cc(Br)ccc2/C1=C1/Nc2ccccc2/C1=N\OCCN1CCCC1 [Cpd 7]           =      6.30
 8  CN(CCON=C1C(=C2C(=O)Nc3cc(Br)ccc32)Nc2ccccc21)CC(O)CO (centres unmarked) [Cpd 21]           =      6.82
 9  COCCN1CCN(CCO/N=C2/C(=C3/C(=O)Nc4cc(Br)ccc43)Nc3ccccc32)CC1 [Cpd 25]           =      6.00
10  O=C1Nc2cc(Br)ccc2/C1=C1/Nc2ccccc2/C1=N\OCCN1CCN(CCOCCO)CC1 [Cpd 15]           =      6.05
11  O=C1Nc2cc(Br)ccc2/C1=C1/Nc2ccccc2/C1=N\OCCN1CCCC1 [Cpd 18]           =      6.35

====

Target: CDK5/p25 (Homo sapiens)
Sequence (Q00535 whole entry): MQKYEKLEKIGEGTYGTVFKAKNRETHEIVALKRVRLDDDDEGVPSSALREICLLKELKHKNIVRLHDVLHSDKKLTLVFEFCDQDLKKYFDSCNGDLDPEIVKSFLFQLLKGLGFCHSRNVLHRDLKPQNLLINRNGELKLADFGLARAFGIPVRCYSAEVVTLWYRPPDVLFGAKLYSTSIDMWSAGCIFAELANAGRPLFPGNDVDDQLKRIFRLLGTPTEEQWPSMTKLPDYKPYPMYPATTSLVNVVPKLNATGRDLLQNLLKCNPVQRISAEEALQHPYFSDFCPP
Sequence (Q15078 99-307 partner limits assumed): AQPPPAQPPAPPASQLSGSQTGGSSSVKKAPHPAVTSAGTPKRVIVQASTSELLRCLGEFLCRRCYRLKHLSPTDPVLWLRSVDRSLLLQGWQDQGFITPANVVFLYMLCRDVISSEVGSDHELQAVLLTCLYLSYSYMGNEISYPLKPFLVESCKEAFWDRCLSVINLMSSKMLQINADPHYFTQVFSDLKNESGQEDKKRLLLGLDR
Assay: CDK5/p25 kinase assay (histone H1, 15 μM ATP)
Conditions: 30° C., 30 min
pIC50: −log10 of the molar value.
Quick reference for pIC50 among some compounds
Property: pIC50

> print(dat)
                                   compound              target.desc  property  reported
1  CN1CCN(CCO/N=C2/C(=C3/C(=O)Nc4cc(Br)ccc43)Nc3ccccc32)CC1 [Cpd 23]  CDK5/p25 (Homo sapiens)     pIC50      6.52
2  O=C1Nc2cc(Br)ccc2/C1=C1/Nc2ccccc2/C1=N\OCCN1CCN(CCOCCO)CC1 [Cpd 15]  CDK5/p25 (Homo sapiens)     pIC50      6.51
3  CN(CCON=C1C(=C2C(=O)Nc3cc(Br)ccc32)Nc2ccccc21)CC(O)CO (stereo not drawn) [Cpd 21]  CDK5/p25 (Homo sapiens)     pIC50      7.00
4  CCN(CC)CCO/N=C1/C(=C2/C(=O)Nc3cc(Br)ccc32)Nc2ccccc21 [Cpd 6]  CDK5/p25 (Homo sapiens)     pIC50      7.70
5  COCCN1CCN(CCO/N=C2/C(=C3/C(=O)Nc4cc(Br)ccc43)Nc3ccccc32)CC1 [Cpd 14]  CDK5/p25 (Homo sapiens)     pIC50      6.30
6  COCCN1CCN(CCO/N=C2/C(=C3/C(=O)Nc4cc(Br)ccc43)Nc3ccccc32)CC1 [Cpd 25]  CDK5/p25 (Homo sapiens)     pIC50      6.40
